B1: library; numbered along this chain (parent)
chain: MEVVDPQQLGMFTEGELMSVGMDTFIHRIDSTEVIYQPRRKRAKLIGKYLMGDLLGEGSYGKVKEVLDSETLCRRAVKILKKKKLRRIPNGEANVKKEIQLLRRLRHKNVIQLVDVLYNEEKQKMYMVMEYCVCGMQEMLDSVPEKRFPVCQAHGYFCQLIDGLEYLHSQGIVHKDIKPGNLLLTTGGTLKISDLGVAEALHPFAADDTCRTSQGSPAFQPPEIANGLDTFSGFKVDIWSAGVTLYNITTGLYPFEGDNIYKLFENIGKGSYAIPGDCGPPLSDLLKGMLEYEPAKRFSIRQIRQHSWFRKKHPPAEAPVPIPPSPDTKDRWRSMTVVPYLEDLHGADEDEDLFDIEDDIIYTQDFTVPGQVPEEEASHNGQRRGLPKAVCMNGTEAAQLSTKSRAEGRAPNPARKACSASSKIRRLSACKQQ

# Variants of: B1
# EXPERIMENT: STK11 functional score (HeLa growth suppression), rescaled enrichment; synonymous median = 1, nonsense median = 0 (normalised score)
# TEST SETTINGS: with HeLa; variant type: missense
ASSAY METRIC: STK11 functional score

{"MUTATION SPEC": "M51H", "QUANTITATIVE RESULT": 1.68}
{"MUTATION SPEC": "S69K", "QUANTITATIVE RESULT": 1.31}
{"MUTATION SPEC": "K311V", "QUANTITATIVE RESULT": 0.835}
{"MUTATION SPEC": "S31H", "QUANTITATIVE RESULT": -0.108}
{"MUTATION SPEC": "L72D", "QUANTITATIVE RESULT": 1.51}
{"MUTATION SPEC": "A273N", "QUANTITATIVE RESULT": 1.3}
